// provenance: patent US12448399B2

# system: KRas-G12D (Homo sapiens, UniProt P01116, G12D)
# Construct: insert the HiBiT tag onto the N-terminus of one or more of the endogenous KRas alleles; host or cells: AsPC-1 HiBiT-KRasG12D knock-in clone (one tagged allele, two untagged KRasG12D alleles)
# Sequence (P01116 1-188 isoform P01116-2 G12D): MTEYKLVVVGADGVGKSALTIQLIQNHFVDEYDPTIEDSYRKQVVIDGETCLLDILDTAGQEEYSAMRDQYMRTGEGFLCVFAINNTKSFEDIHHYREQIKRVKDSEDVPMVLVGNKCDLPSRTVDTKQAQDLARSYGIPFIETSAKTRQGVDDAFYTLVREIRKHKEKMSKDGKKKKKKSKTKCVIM
# experiment.description: HiBiT Degradation Assay (G12D), AsPC-1 HiBiT-KRasG12D cells, 24 hr
# Format: cell-based
# conditions.used: ASPC1, AsPC-1 cells, maximum degradation observed
In this section, each of the compounds is paired with its reported Dmax.
property: Dmax

compound="CCc1cccc2cc(O)cc(-c3ncc4c(N5CC6CCC(C5)N6)nc(OCCN5CCC(CN6CCC(Oc7cccc8c7C(=O)N(C7CCC(=O)NC7=O)C8=O)CC6)CC5)nc4c3F)c12 (stereo not shown)" reported_result="≤ 25%"
compound="C#Cc1c(F)ccc2cc(O)cc(-c3ncc4c(N5CC6CCC(C5)N6)nc(OCCN5CCC(CC6CCN(c7cccc8c7CN(C7CCC(=O)NC7=O)C8=O)CC6)CC5)nc4c3F)c12 (stereo not shown)" reported_result="> 70%"
compound="C#Cc1c(F)ccc2cccc(-c3ncc4c(N5CC6CCC(C5)N6)nc(OC[C@@]56CCCN5[C@H](CN5CCN(CC7CCN(c8ccc9c(c8)CN(C8CCC(=O)NC8=O)C9=O)CC7)CC5)CC6)nc4c3F)c12 (stereo partly shown)" reported_result="> 70%"
compound="C#Cc1c(F)ccc2cc(O)cc(-c3ncc4c(C5CC6CCC(C5)N6)nc(OCCN5CCC(CC6CCN(CC7CCN(c8ccc9c(c8)C(=O)N(C8CCC(=O)NC8=O)C9=O)CC7)CC6)CC5)nc4c3F)c12 (stereo not shown)" reported_result="> 70%"
compound="C#Cc1c(F)ccc2cc(O)cc(-c3ncc4c(N5CC6CCC(C5)N6)nc(OCCN5CCC6(CC5)CCN(CC5CCN(c7ccc8c(c7F)n(C(C)C)c(=O)n8C7CCC(=O)NC7=O)CC5)CC6)nc4c3F)c12 (stereo not shown)" reported_result="> 70%"
compound="CCc1c(F)ccc2cc(O)cc(-c3ncc4c(N5CC6CCC(C5)N6)nc(OC[C@@H]5C[C@@H](OC6CCN(CC7CCN(c8ccc9c(c8Cl)CN(C8CCC(=O)NC8=O)C9=O)CC7)CC6)CN5C)nc4c3F)c12 (stereo partly shown)" reported_result="> 70%"
compound="C#Cc1c(F)ccc2cc(O)cc(-c3ncc4c(N5CC6CCC(C5)N6)nc(OCC5(CN6CCC(CN7CCN(c8ccc9c(c8Cl)CN(C8CCC(=O)NC8=O)C9=O)CC7)CC6)CC5)nc4c3F)c12 (stereo not shown)" reported_result="> 70%"
compound="C#Cc1c(F)ccc2cc(O)cc(-c3ncc4c(C5CC6CCC(C5)N6)nc(OCCN5CCC6(CC5)CCN(CC5CCN(c7ccc8c(c7)CN(C7CCC(=O)NC7=O)C8=O)CC5)CC6)nc4c3F)c12 (stereo not shown)" reported_result="> 70%"
compound="C#Cc1c(F)ccc2cc(O)cc(-c3ccc4c(N5CC6CCC(C5)N6)nc(OCCN5CCC(CC6CCN(CC7CCN(c8ccc9c(c8F)CN(C8CCC(=O)NC8=O)C9=O)CC7)CC6)CC5)nc4c3)c12 (stereo not shown)" reported_result="≤ 25%"
compound=C#Cc1c(F)ccc2cc(O)cc(-c3ncc4c(N5CC6CCC(C5)N6)nc(OCCN5CCC(CC6CCN(CC7CCN(c8ccc9c(c8)CN([C@H]8CCC(=O)NC8=O)C9=O)CC7)CC6)CC5)nc4c3F)c12 reported_result="> 70%"
